TESTED_ON: UniProt:Q96GD4
Sequence (Q96GD4 whole entry): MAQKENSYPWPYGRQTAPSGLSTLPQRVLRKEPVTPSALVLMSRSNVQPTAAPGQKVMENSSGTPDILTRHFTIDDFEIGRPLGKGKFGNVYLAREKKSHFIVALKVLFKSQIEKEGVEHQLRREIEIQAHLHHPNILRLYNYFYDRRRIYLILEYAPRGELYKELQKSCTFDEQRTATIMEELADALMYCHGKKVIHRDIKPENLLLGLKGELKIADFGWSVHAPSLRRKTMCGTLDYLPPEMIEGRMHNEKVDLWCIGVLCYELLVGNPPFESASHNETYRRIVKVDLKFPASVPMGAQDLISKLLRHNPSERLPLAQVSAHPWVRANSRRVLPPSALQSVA
ASSAY_METRIC: IC50 (nM)
Please reply with the bare figure in nM and do not write the unit itself.

Find the recorded IC50 belonging to CC(C)NC(=O)[C@H]1CCC[C@H]1Nc1nc(Nc2ccc(C(=O)N(C)C3CCN(C)CC3)cc2)ncc1C(F)(F)F [Compound X] and report it. 9

* * *

TESTED_ON: Aurora A kinase (Homo sapiens, UniProt O14965)
Sequence (O14965 whole entry): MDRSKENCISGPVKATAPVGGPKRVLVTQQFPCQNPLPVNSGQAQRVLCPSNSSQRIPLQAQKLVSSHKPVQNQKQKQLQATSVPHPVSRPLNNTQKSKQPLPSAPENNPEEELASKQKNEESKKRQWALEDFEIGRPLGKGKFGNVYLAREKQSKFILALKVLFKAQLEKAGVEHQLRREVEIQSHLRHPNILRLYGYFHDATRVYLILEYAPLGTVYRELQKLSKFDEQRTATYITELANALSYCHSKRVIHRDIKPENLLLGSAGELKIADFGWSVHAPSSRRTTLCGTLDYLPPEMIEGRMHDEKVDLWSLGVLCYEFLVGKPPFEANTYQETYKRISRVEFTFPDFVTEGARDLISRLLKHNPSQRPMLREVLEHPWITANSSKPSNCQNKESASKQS
ASSAY_METRIC: IC50 (nM)
Please reply with the bare figure in nM and do not write the unit itself.

Given the entry `CC(C)NC(=O)[C@H]1CCC[C@H]1Nc1nc(Nc2ccc(C(=O)N(C)C3CCN(C)CC3)cc2)ncc1C(F)(F)F` , what IC50 was observed with Aurora A kinase (Homo sapiens, UniProt O14965)? 70

* * *

TESTED_ON: Aurora C kinase (Homo sapiens, UniProt Q9UQB9)
Sequence (Q9UQB9 whole entry): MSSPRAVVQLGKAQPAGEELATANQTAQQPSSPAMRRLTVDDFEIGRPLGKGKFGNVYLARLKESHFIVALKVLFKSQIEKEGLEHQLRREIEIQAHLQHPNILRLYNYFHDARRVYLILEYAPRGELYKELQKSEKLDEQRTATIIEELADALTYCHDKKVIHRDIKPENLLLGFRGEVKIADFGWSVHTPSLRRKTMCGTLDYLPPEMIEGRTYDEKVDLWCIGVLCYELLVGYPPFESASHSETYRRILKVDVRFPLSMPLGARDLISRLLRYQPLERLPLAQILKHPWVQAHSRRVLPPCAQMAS
ASSAY_METRIC: pIC50
Note on units: pIC50 is unitless, being -log10 of a concentration expressed in mol/L.

Find the recorded pIC50 belonging to CC(C)NC(=O)[C@H]1CCC[C@H]1Nc1nc(Nc2ccc(C(=O)N(C)C3CCN(C)CC3)cc2)ncc1C(F)(F)F [Compound X] and report it. 7.77
